Assay Protocol: Human HepG2 cell viability assay in 384 well format
Format: toxicity, cell-based
Set-up: dose 125 nL, time 70.5 hour; concentration not given beside the values
Recorded Conditions: HepG2 cells, read-out: Inhibition
Measurement Label: cytotoxicity at 70.5 h (%)
The reply should contain only the number, in %.

Which value of cytotoxicity at 70.5 h has been reported for O=C(NCC1CC1)C1CN(Cc2cccs2)Cc2ccnn2C1 (stereo not given) in the records? -13.4

Which value of cytotoxicity at 70.5 h has been reported for CC(C(N)=O)N(C)Cc1ccccc1C(F)(F)F (stereo not given) in the records? -87.9

Which value of cytotoxicity at 70.5 h has been reported for O=C(NC1CCCC1)NC1CCc2[nH]c(=O)ccc2C1 (stereo not given) in the records? -7.5

Which value of cytotoxicity at 70.5 h has been reported for "O=C(NCCCO)Nc1cnc2cc(Cl)ccc2c1O" in the records? -1.44

Which value of cytotoxicity at 70.5 h has been reported for "Cc1ccc(C(=O)N2C[C@@H]3CN(S(C)(=O)=O)CCO[C@@H]3C2)o1" in the records? -0.0736

Which value of cytotoxicity at 70.5 h has been reported for "CC(C)c1ccccc1OCCNC(=O)N1CCC2(CC1)OCCO2" in the records? -2.15

Which value of cytotoxicity at 70.5 h has been reported for "O=C(c1ccoc1)N1C[C@@H]2OCCN(c3ncccn3)[C@@H]2C1" in the records? 1.23

Which value of cytotoxicity at 70.5 h has been reported for Cc1cc(C)nc(N2CCCC2c2cccnc2)n1 (stereo not given) in the records? -2.91

Which value of cytotoxicity at 70.5 h has been reported for Cc1cnn(CC2CCCN2C(=O)c2ccc(-n3cccn3)nc2)c1 (stereo not given) in the records? -1.39

Which value of cytotoxicity at 70.5 h has been reported for CC(C)(C)c1n[nH]c(C2CN(C(=O)c3csnn3)CCO2)n1 (stereo not given) in the records? 22.6

Which value of cytotoxicity at 70.5 h has been reported for "CCn1c(C)cc(C(=O)NCc2cccc(S(=O)(=O)NC)c2)c1C" in the records? -4.15

Which value of cytotoxicity at 70.5 h has been reported for "Cc1ccc(NC(=O)c2n[nH]c(-n3cnnc3)n2)cc1" in the records? -8.15

Which value of cytotoxicity at 70.5 h has been reported for "Cc1cncc(C(=O)N2Cc3ccccc3C3(CCN(C)CC3)C2)c1" in the records? -14.6

Which value of cytotoxicity at 70.5 h has been reported for "COCCCN(Cc1cnc(C2CCCCC2)nc1)C1CCN(C)CC1" in the records? -16.3

Which value of cytotoxicity at 70.5 h has been reported for CCCc1n[nH]c(C2CN(C(=O)C3=COCCC3)CCO2)n1 (stereo not given) in the records? -16.3

----------
Please provide measured cytotoxicity at 70.5 h for the entries that follow.
Assay Protocol: Human HepG2 cell viability assay in 384 well format
Assay type: toxicity, cell-based
Design: dose 125 nL, time 70.5 hour; concentration not given beside the values
Recorded Conditions: HepG2 cells, read-out: Inhibition
The reply should contain only the number, in %.

Which value of cytotoxicity at 70.5 h has been reported for "CCn1cc(CN2CCC(CN3CCCCC3)CC2)cc1C#N" in the records? 4.33

Which value of cytotoxicity at 70.5 h has been reported for CC(O)CN1CCN(C(=O)c2cccn2Cc2ccncc2)CC1 (configuration not stated) in the records? -16.4

Which value of cytotoxicity at 70.5 h has been reported for CC(NCCN1CCC(N(C)C)CC1)c1ccc(Cl)s1 (configuration not stated) in the records? 14.9

Which value of cytotoxicity at 70.5 h has been reported for "Cc1cccc(CN2CCc3ncnc(NC4CCC4)c3CC2)n1" in the records? 5.7

Which value of cytotoxicity at 70.5 h has been reported for "COCC(=O)N1C[C@H]2CN(Cc3csc(C)n3)C(=O)[C@H]2C1" in the records? -8.09

Which value of cytotoxicity at 70.5 h has been reported for Cc1cc(N2CCC(NC(C)Cc3ccsc3)CC2)nc(N)n1 (configuration not stated) in the records? 32.9

Which value of cytotoxicity at 70.5 h has been reported for "O=C(c1cn2cc(Cl)ccc2n1)N1CCC(CCn2cccn2)CC1" in the records? 19.9

Which value of cytotoxicity at 70.5 h has been reported for "COCC(=O)N[C@H](C)c1onc(-c2ccc(F)cc2)c1C(=O)O" in the records? -6.83

Which value of cytotoxicity at 70.5 h has been reported for CCCOC1CCCN(C(=O)c2cnc(-c3csc(C)n3)nc2O)C1 (configuration not stated) in the records? -6.67

Which value of cytotoxicity at 70.5 h has been reported for "CC(=O)Cn1nc(-c2ccccc2F)ccc1=O" in the records? -3.88

Which value of cytotoxicity at 70.5 h has been reported for "Cn1cc(NC(=O)c2cccc(Cl)c2)c(=O)n(C)c1=O" in the records? 24

Which value of cytotoxicity at 70.5 h has been reported for "CS(=O)(=O)NC1CCN(C(=O)NCc2ccccn2)CC1" in the records? -2.65

Which value of cytotoxicity at 70.5 h has been reported for CC(=O)C1(c2ccccc2)CCN(C(=O)C2CNCCO2)CC1 (configuration not stated) in the records? -7.25

Which value of cytotoxicity at 70.5 h has been reported for CCS(=O)(=O)N1CCC2(CCCN(Cc3cc(OC)ccc3F)C2)C1 (configuration not stated) in the records? -6.66

Which value of cytotoxicity at 70.5 h has been reported for COC(=O)CCC(=O)NC1CCCc2cc(OC(F)F)ccc21 (configuration not stated) in the records? -13

Which value of cytotoxicity at 70.5 h has been reported for "O=C(CC1CCCC1)NCCn1ccc(-c2ccncc2)n1" in the records? 9.19

Which value of cytotoxicity at 70.5 h has been reported for CC(=O)NC1CCCN(c2nc3ccccc3cc2CO)C1 (configuration not stated) in the records? 2.9
